Hey, just so you know, these numbers are from patent US20250084062A1.

System: acetylcholine receptor clustering in C2Cl2 cells
Experiment: Induction of acetylcholine receptor clustering in mouse myoblasts C2Cl2 cells (Test Example 1)
Assay type: cell-based
Conditions: Mus musculus, Myotube; C2Cl2 myotubes, with 0.1 ng/ml Agrin; concentration giving 50% of cluster area of 10 ng/ml Agrin (100%); read-out: EC50
pEC50: −log10 of the molar value. Where a name gives a salt, the structure may show the parent alone.
measurementName: pEC50

These recorded examples may help you get a feel for the data.
[
  {
    "compound": "Cc1cc(-c2ccc(S(=O)(=O)N3CC[C@H](F)C3)cc2F)nc2cc(OCCN)ccc12 [Example 13, hydrochloride]",
    "pEC50": 8.52
  },
  {
    "compound": "Cc1cc(-c2ccc(S(=O)(=O)N3CC[C@H](F)C3)cc2F)nc2c(F)c(C(=O)O)ccc12",
    "pEC50": 5.73
  },
  {
    "compound": "Cc1cc(-c2c(F)cc(S(=O)(=O)N3CC[C@@H](F)C3)cc2F)nc2cc(C(=O)O)ccc12",
    "pEC50": 5.72
  },
  {
    "compound": "Cc1cc(-c2c(F)cc(S(=O)(=O)N3CCCC3)cc2F)nc2cc(C(=O)O)ccc12",
    "pEC50": 6.83
  },
  {
    "compound": "CNCCNC(=O)c1ccc2c(C)cc(-c3c(F)cc(S(=O)(=O)N4CC[C@H](F)C4)cc3F)nc2c1 [Example 10, hydrochloride]",
    "pEC50": 7.80
  }
]

[P] Cc1c(F)c(-c2c(F)cc(S(=O)(=O)N3CC[C@H](F)C3)cc2F)nc2cc(C3CCNCC3)ccc12
[Q] CNCCNC(=O)c1ccc2c(C)cc(-c3c(F)cc(S(=O)(=O)N4CC[C@H](F)C4)cc3F)nc2n1
**Query** Among P and Q , whose measured pEC50 is the smaller figure? I would appreciate it if you answered with the label of your choice.
**Result** P
(P: 7.05, Q: 7.59)

* * *

System: acetylcholine receptor clustering in C2Cl2 cells
Assay: Induction of acetylcholine receptor clustering in mouse myoblasts C2Cl2 cells (Test Example 1)
Assay type: cell-based
Details: Mus musculus, Myotube; C2Cl2 myotubes, with 0.1 ng/ml Agrin; concentration giving 50% of cluster area of 10 ng/ml Agrin (100%); read-out: EC50
Structures can show the parent of a compound that is named as a salt.
measurementName: EC50 (nM)

These recorded examples may help you get a feel for the data.
[
  {
    "molecule": "Cc1c(F)c(-c2c(F)cc(S(=O)(=O)N3CCC(F)CC3)cc2F)nc2cc(C(=O)O)ccc12",
    "assaySystem": "acetylcholine receptor clustering in C2Cl2 cells",
    "unitOfMeasure": "nM",
    "EC50": 3
  },
  {
    "molecule": "Cc1c(F)c(-c2c(F)cc(S(=O)(=O)N3CCC[C@@H]3C)cc2F)nc2cc(C(=O)O)ccc12",
    "assaySystem": "acetylcholine receptor clustering in C2Cl2 cells",
    "unitOfMeasure": "nM",
    "EC50": 11
  },
  {
    "molecule": "Cc1cc(-c2ccc(S(=O)(=O)N3CCC[C@H]3CO)cc2F)nc2cc(C(=O)O)ccc12",
    "assaySystem": "acetylcholine receptor clustering in C2Cl2 cells",
    "unitOfMeasure": "nM",
    "EC50": 3750
  },
  {
    "molecule": "Cc1cc(-c2ccc(S(=O)(=O)N3CC[C@H](F)C3)cc2F)nc2cc(OC[C@@H](O)CO)ccc12",
    "assaySystem": "acetylcholine receptor clustering in C2Cl2 cells",
    "unitOfMeasure": "nM",
    "EC50": 24
  },
  {
    "molecule": "Cc1cc(-c2c(F)cc(S(=O)(=O)N3CC[C@H](F)C3)cc2F)nc2cc(CCC(=O)O)ccc12",
    "assaySystem": "acetylcholine receptor clustering in C2Cl2 cells",
    "unitOfMeasure": "nM",
    "EC50": 16
  },
  {
    "molecule": "Cc1cc(-c2c(F)cc(S(=O)(=O)N3CCC(F)CC3)cc2F)nc2cc(C(=O)N3CC4(CN(C)C4)C3)ccc12",
    "assaySystem": "acetylcholine receptor clustering in C2Cl2 cells",
    "unitOfMeasure": "nM",
    "EC50": 2
  },
  {
    "molecule": "Cc1cc(-c2c(F)cc(S(=O)(=O)N3CCC(F)CC3)cc2F)nc2nc(C(=O)N3CC4(CN(C)C4)C3)ccc12",
    "assaySystem": "acetylcholine receptor clustering in C2Cl2 cells",
    "unitOfMeasure": "nM",
    "EC50": 43
  },
  {
    "molecule": "Cc1cc(-c2c(F)cc(S(=O)(=O)N3CC[C@H](F)C3)cc2F)nc2cc(CC(=O)O)ccc12",
    "assaySystem": "acetylcholine receptor clustering in C2Cl2 cells",
    "unitOfMeasure": "nM",
    "EC50": 65
  }
]

[1] Cc1cc(-c2c(F)cc(S(=O)(=O)N3CC[C@H](F)C3)cc2F)nc2nc(C(=O)O)ccc12
[2] Cc1cc(-c2c(F)cc(S(=O)(=O)N3CC[C@H](F)C3)cc2F)nc2cc(C(=O)N3CC4(CN(C)C4)C3)ccc12
**Query** Between 1 and 2 , whose measured EC50 reads higher? I would appreciate it if you answered with the label of your choice.
**Result** 1

[I] Cc1cc(-c2c(F)cc(S(=O)(=O)N3CC[C@H](F)C3)cc2F)nc2nc(C3CCC(C(=O)O)CC3)ccc12 (stereo partly shown)
[II] Cc1cc(-c2ccc(S(=O)(=O)N3C[C@@H](O)[C@H](F)C3)cc2F)nc2cc(C(=O)O)ccc12
[III] Cc1c(F)c(-c2c(F)cc(S(=O)(=O)N3CC[C@H](F)C3)cc2F)nc2cc(CCN)ccc12
**Query** Put the entries in order of EC50, starting with the largest number. Please write the labels in the order that was asked for.
**Result** I, II, III
(I: 3220 nM, II: 1090 nM, III: 53 nM)

[A] Cc1cc(-c2c(F)cc(S(=O)(=O)N3CCC(F)CC3)cc2F)nc2nc(C(=O)O)ccc12
[B] Cc1cc(-c2c(F)cc(S(=O)(=O)N3CC[C@H](F)C3)cc2F)nc2cc(C(=O)NCCN(C)C)ccc12
[C] Cc1c(F)c(-c2c(F)cc(S(=O)(=O)N3CC[C@H](F)C3)cc2F)nc2cc(C(=O)NC(C)(C)CC(=O)O)ccc12
[D] Cc1cc(-c2c(F)cc(S(=O)(=O)N3CC[C@H](F)C3)cc2F)nc2cc(C(=O)NC[C@H]3COCCN3)ccc12
**Query** Put the entries in order of EC50, starting with the largest number. Please write the labels in the order that was asked for.
**Result** C, A, D, B
(C: 1490 nM, A: 724 nM, D: 33 nM, B: 21 nM)

[1] CNCCNC(=O)c1ccc2c(C)cc(-c3c(F)cc(S(=O)(=O)N4CC[C@H](F)C4)cc3F)c(F)c2n1 [Example 15, hydrochloride]
[2] Cc1cc(-c2ccc(S(=O)(=O)N3C[C@@H](F)[C@H](F)C3)cc2F)nc2cc(C(=O)O)ccc12
[3] CNCCN(C)C(=O)c1ccc2c(C)cc(-c3c(F)cc(S(=O)(=O)N4CC[C@H](F)C4)cc3F)nc2c1
[4] Cc1cc(-c2ccc(S(=O)(=O)N3CC[C@H](F)C3)cc2C#N)nc2cc(C(=O)O)ccc12
**Query** Arrange these 4 molecules in increasing order of EC50. Please write the labels in the order that was asked for.
**Result** 1, 3, 2, 4

* * *

System: acetylcholine receptor clustering in C2Cl2 cells
Assay: Induction of acetylcholine receptor clustering in mouse myoblasts C2Cl2 cells (Test Example 1)
Assay type: cell-based
Conditions: Mus musculus, Myotube; C2Cl2 myotubes, with 0.1 ng/ml Agrin; concentration giving 50% of cluster area of 10 ng/ml Agrin (100%); read-out: EC50
Experimental: Test Example 1: Evaluation of the Induction of Acetylcholine Receptor Clustering in Mouse Myoblasts C2Cl2 Cells Induction of acetylcholine receptor clustering by the test compound was evaluated by using fluorescently-labeled Bungarotoxin to image and quantify the acetylcholine receptor cluster region induced by the differentiation of myoblasts into myotubes, and measure the change in area. […]
Where a name gives a salt, the structure may show the parent alone.
measurementName: EC50 (nM)

These recorded examples may help you get a feel for the data.
[
  {
    "compound": "Cc1cc(-c2ccc(S(=O)(=O)N3C[C@@H](F)C[C@H]3CO)cc2F)nc2cc(C(=O)O)ccc12",
    "dataValue": 4030
  },
  {
    "compound": "Cc1cc(-c2c(F)cc(S(=O)(=O)N3CC[C@H](F)C3)cc2F)nc2nc(C3CCN(C)CC3)ccc12 [Example 17, hydrochloride]",
    "dataValue": 65
  },
  {
    "compound": "Cc1c(F)c(-c2c(F)cc(S(=O)(=O)N3CCCC34CC4)cc2F)nc2cc(C(=O)O)ccc12",
    "dataValue": 182
  },
  {
    "compound": "Cc1cc(-c2c(F)cc(S(=O)(=O)N3CC[C@H](F)C3)cc2F)nc2cc(C(=O)N[C@@H](CN)C(=O)O)ccc12 [Example 12, hydrochloride]",
    "dataValue": 268
  },
  {
    "compound": "Cc1cc(-c2ccc(S(=O)(=O)N3CC[C@H](F)C3)cc2F)nc2cc(C(=O)NCC3(O)CNC3)ccc12",
    "dataValue": 53
  }
]

[I] Cc1cc(S(=O)(=O)N2CC[C@H](F)C2)ccc1-c1nc2cc(C(=O)O)ccc2c(C)c1F
[II] Cc1c(F)c(-c2c(F)cc(S(=O)(=O)N3CC[C@H](F)C3)cc2F)nc2cc(C(=O)O)ccc12
**Query** Between I and II , whose measured EC50 reads higher? I would appreciate it if you answered with the label of your choice.
**Result** I
